# measured_target: full-length H5 A/Vietnam/1203/2004 HA expressed on 293T cells (influenza A virus A/Vietnam/1203/2004 (H5N1))
# protocol_notes: flow cytometry, HA-expressing 293T
With a cut-off of 0.8 µg/mL, any EC50 strictly below it is called TRUE; any EC50 meeting it or above is called FALSE.

[
  {
    "binder": "P58 (antibody, V domains shown) VH: EVQLVESGGGLVQPGGSLRLSCAASGFTIGGGGIHWVRQAPGKGLEWVAWIWPYWGYTYYADSVKGRFTISADTSKNTAYLQMNSLRAEDTAVYYCARFNSYSYSGVMDYWGQGTLVTVSS VL: DIQMTQSPSSLSASVGDRVTITCRASQDVYSYVAWYQQKPGKAPKLLISSSRGLYSGVPSRFSGSGSGTDFTLTISSLQPEDFATYYCQQYSSFPITFGQGTKVEIKR",
    "group": "TRUE"
  },
  {
    "binder": "S48 (antibody, V domains shown) VH: EVQLVESGGGLVQPGGSLRLSCAVSGFTIGDGSIHWVRQAPGKGLEWVASIGPYGGSTYYADSVKGRFTISADTSKNTAYLQMNSLRAEDTAVYYCARFHYGYWNNMDYWGQGTLVTVSS VL: DIQMTQSPSSLSASVGDRVTITCRASQDVGWWVAWYQQKPGKAPKLLIYGTRWLYSGVPSRFSGSGSGTDFTLTISSVQPEDFATYYCQQYYSGPITFGQGTKVEIKR",
    "group": "FALSE"
  },
  {
    "binder": "S40 (antibody, V domains shown) VH: EVQLVESGGGLVQPGGSLRLSCAASGFTIGDFGIHWVRQAPGKGLEWVAGIWPFGGYTYYADSVKGRFTISADTSKNTAYLQMNSLRAEDTAVYYCARFVNWDGDYMDYWGQGTLVTVSS VL: DIQMTQSPSSLSASVGDRVTITCRASQDVGFYVAWYQQKPGKAPKLLISWSSYLYSGVPSRFSGSGSGTDFTLTISSLQPEDFATYYCQQYYNYPLTFGQGTKVEIKR",
    "group": "FALSE"
  },
  {
    "binder": "S07 (antibody, V domains shown) VH: EVQLVESGGGLVQPGGSLRLSCAASGFTINSSGIHWVRQAPGKGLEWVASIGPSWGSTYYADSVKGRFTISADTSKNTAYLQMNSLRAEDTAVYYCARFGIGDIDVMDYWGQGTLVTVSS VL: DIQMTQSPSSLSASVGDRVTITCRASQDVWGYVAWYQQKPGKAPKLLISYASFLYSGVPSRFSGSGSGTDFTLTISSLQPEDFATYYCQQYFNWPVTFGQGTKVEIKR",
    "group": "FALSE"
  }
]
